# procedure details: Water solubility by adding distilled water in portions until a clear solution
# Type: physicochemical
# condition set: water, thermodynamic from solid
measurement type: solubility (mg/mL)
Give the value in mg/mL but do not write mg/mL after it.

Look up solubility: CC/C=C\C/C=C\C/C=C\C/C=C\C/C=C\CCCC(=O)N[C@@H](CC(C)C)C(=O)O
118

###

# procedure details: Water solubility by adding distilled water in portions until a clear solution
# Type: physicochemical
# condition set: thermodynamic from solid; distilled water; weight of salt in mg divided by volume of solution in mL; read-out: water solubility
measurement type: solubility

I am curious: what solubility value has been reported for CC/C=C\C/C=C\C/C=C\C/C=C\C/C=C\CCCC(=O)O ?
< 300 µg/mL
